Exercise: for every item that follows, state its recorded IC50.
# TARGET: M3 (Homo sapiens, UniProt P20309)
# Sequence (P20309 whole entry): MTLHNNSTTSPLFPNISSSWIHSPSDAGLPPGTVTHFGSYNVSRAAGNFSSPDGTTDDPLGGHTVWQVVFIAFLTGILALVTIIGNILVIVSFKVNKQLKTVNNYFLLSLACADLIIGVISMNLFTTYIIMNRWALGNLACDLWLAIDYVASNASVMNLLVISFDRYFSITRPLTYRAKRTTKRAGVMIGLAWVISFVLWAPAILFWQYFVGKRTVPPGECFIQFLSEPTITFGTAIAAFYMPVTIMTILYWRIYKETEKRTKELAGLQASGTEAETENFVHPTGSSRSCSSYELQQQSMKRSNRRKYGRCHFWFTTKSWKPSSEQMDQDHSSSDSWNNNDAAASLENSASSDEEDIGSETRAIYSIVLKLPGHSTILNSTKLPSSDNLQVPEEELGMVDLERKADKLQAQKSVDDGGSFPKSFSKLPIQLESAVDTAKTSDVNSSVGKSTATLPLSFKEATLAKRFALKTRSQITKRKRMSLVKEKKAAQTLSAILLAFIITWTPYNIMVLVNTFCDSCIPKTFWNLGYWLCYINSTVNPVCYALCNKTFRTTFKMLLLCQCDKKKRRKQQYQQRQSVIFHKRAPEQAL
# ASSAY PROTOCOL: In vitro functional assay of muscarinic acetylcholine receptor activity, M3
# Type: cell-based
# MEASUREMENT PARAMETERS: antagonist IC50 at M3; read-out: M3 IC50

Cc1ccc(COCCC(=O)N2CC3CCC(C2)N3c2ccc(C#N)cn2)c2cccnc12 [Example 176] | > 10 µM
C[C@@H]1CN(c2ncc(F)cc2Cl)CCN1C(=O)CCCc1cccc2ncccc12 [Example 80] | 1 to 10 µM
O=C(CCNCc1cccc2ncnn12)N1CC2CCC(C1)N2c1ccc(Cl)cn1 [Example 157] | > 10 µM
O=C(CCS(=O)(=O)c1cccc2nccn12)N1CC2CCC(C1)N2c1ccc(Cl)cn1 [Example 143] | 1 to 10 µM
CC1CN(c2ccncc2)CCN1C(=O)CCCc1cccc2ncccc12 (stereo not drawn) [Example 56] | 1 to 10 µM

// for each compound below, give its IC50
1. N#Cc1ccc(N2C3CCC2CN(C(=O)C2CC(Cc4cccc5ncsc45)C2)C3)nc1 (stereo not drawn) [Example 31]
2. Cc1cc(F)cnc1N1CC(C)N(C(=O)CCS(=O)(=O)c2cccc3ncsc23)C[C@H]1C (stereo partly drawn) [Example 127]
3. N#Cc1ccc(C2=CC3CCC(C2)N3C(=O)CCS(=O)(=O)c2cccc3ncsc23)nc1 (stereo not drawn) [Example 141]

[out]
1. 1 to 10 µM
2. 1 to 10 µM
3. > 10 µM

// for each compound below, give its IC50
1. O=C(CCNCc1cccc2ncnn12)N1CC2CCC(C1)N2c1ccc(-c2ccccc2)cn1 [Example 193]
2. N#Cc1ccc(C2CC3CCC(C2)N3C(=O)CCS(=O)(=O)c2cccc3ncsc23)nc1 (stereo not drawn) [Example 142]
3. Cc1cc(F)cnc1N1CCN(C(=O)CCCc2cccc3ncoc23)[C@@H](C)C1 [Example 83]

[out]
["1 to 10 µM", "> 10 µM", "1 to 10 µM"]
